The binders listed here are annotated with their Ca ion level-increasing activity (FLIPR).
Target: human OT7T175 (metastin receptor) (human, UniProt Q969F8 1-398)
Sequence (Q969F8 whole entry L364H): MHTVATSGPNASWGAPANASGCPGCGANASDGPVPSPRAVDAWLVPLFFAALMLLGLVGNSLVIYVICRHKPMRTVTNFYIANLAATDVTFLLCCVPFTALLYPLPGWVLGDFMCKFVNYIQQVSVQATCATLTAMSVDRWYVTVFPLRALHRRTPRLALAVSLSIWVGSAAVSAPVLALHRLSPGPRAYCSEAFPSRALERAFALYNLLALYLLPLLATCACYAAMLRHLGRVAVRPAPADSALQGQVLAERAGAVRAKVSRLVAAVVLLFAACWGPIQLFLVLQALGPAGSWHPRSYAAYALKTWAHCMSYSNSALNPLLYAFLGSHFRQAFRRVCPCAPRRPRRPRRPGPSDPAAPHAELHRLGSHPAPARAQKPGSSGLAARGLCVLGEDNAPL
Experiment: cell-based or functional assay
Non-standard residues stand in square brackets, D forms with d. No end group written: not given here. Arg(Me) = CNC(=N)NCCC[C@H](N)C(=O)O; Bta = N[C@@H](Cc1csc2ccccc12)C(=O)O

// worked examples, Ca ion level-increasing activity (FLIPR) included
| BINDER | Ca ion level-increasing activity (FLIPR) |
| --- | --- |
| [dY]SNSFGL[Arg(Me)]F-NH2 (N-terminus assumed; SMILES CNC(=N)NCCC[C@H](NC(=O)[C@H](CC(C)C)NC(=O)CNC(=O)[C@H](Cc1ccccc1)NC(=O)[C@H](CO)NC(=O)[C@H](CC(N)=O)NC(=O)[C@H](CO)NC(=O)[C@H](N)Cc1ccc(O)cc1)C(=O)N[C@@H](Cc1ccccc1)C(N)=O, also called Compound No. 226) [des(1)-[D-Tyr2,Ser3,Arg(Me)9]MS10] | 1 x Metastin (1-54) |
| YNWNSFGLR[Bta]-NH2 (N-terminus assumed; SMILES CC(C)C[C@H](NC(=O)CNC(=O)[C@H](Cc1ccccc1)NC(=O)[C@H](CO)NC(=O)[C@H](CC(N)=O)NC(=O)[C@H](Cc1c[nH]c2ccccc12)NC(=O)[C@H](CC(N)=O)NC(=O)[C@@H](N)Cc1ccc(O)cc1)C(=O)N[C@@H](CCCNC(=N)N)C(=O)N[C@@H](Cc1csc2ccccc12)C(N)=O, also called Compound No. 189) [[Ala(3-Bzt)10]MS10] | 10 x Metastin (1-54) |

Then there is this binder:
The reported value for [dY]NVNSFGL[Arg(Me)]F-NH2 (N-terminus assumed; SMILES CNC(=N)NCCC[C@H](NC(=O)[C@H](CC(C)C)NC(=O)CNC(=O)[C@H](Cc1ccccc1)NC(=O)[C@H](CO)NC(=O)[C@H](CC(N)=O)NC(=O)[C@@H](NC(=O)[C@H](CC(N)=O)NC(=O)[C@H](N)Cc1ccc(O)cc1)C(C)C)C(=O)N[C@@H](Cc1ccccc1)C(N)=O, also called Compound No. 229) [[D-Tyr1,Val3,Arg(Me)9]MS10] in terms of Ca ion level-increasing activity (FLIPR) is 1 x Metastin (1-54)

All values here come from patent US20090298765A1.
